- Target System: T1, SNTB1, Q13884
- T1 sequence (Q13884 107-205, limits assumed, looked up): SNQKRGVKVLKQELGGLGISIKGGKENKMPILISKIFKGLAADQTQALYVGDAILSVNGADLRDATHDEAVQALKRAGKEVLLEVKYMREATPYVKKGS
- Protocol Notes: holdup assay
- Design: key: below the threshold = too weak to quantify, mostly under pKd 3.1 to 4
- Condition Description: plain residues with an end cap or a label only (N-terminal biotin on a linker: ado-ado)
Measured Property: pKd

INSERT INTO results (binder, quantitative_result) VALUES
  ('KKMPSIESDV [GRIN2A, Q12879]', 4.69),
  ('GQEEQVTTRL [TRPC5, Q9UL62]', 4.04),
  ('FNSYSLTGYV [CLDN2, P57739]', 3.61),
  ('TKGPRGPTRV [SAPCD1, Q5SSQ6]', 4.46),
  ('RRRESYSTTV [EVI5, O60447]', 4.65),
  ('QHKTQLQTLI [BPIFA2, Q96DR5]', 3.49);
